B1: library; numbered along this chain (parent)
chain: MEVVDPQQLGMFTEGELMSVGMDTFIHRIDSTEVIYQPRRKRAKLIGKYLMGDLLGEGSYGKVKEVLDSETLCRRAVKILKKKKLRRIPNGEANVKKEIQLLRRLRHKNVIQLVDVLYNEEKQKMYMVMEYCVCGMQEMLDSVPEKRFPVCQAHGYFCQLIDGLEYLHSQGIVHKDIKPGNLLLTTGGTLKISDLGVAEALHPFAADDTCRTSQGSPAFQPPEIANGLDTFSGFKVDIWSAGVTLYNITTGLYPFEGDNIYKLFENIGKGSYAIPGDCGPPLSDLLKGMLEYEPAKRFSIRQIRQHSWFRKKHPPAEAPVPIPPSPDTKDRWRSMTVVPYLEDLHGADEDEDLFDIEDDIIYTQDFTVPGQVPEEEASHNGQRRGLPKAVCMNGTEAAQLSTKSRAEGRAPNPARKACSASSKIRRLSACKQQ

Variants of: B1
experimentalDetails: STK11 functional score (HeLa growth suppression), rescaled enrichment; synonymous median = 1, nonsense median = 0 (normalised score)
studyConditions: with HeLa; variant type: missense
Please mark met if the recorded STK11 functional score is equal to or greater than 1, and not met if it falls below.

| var | qualitativeLabel |
| --- | --- |
| Q302R | met |

*Q* Tell me whether STK11 functional score is at least 1 here: M18L
*A* met

*Q* Tell me whether STK11 functional score is at least 1 here: S307F
*A* met
